Biological target: dopamine D2 receptor (Rattus norvegicus)
Sequence (P61169 whole entry): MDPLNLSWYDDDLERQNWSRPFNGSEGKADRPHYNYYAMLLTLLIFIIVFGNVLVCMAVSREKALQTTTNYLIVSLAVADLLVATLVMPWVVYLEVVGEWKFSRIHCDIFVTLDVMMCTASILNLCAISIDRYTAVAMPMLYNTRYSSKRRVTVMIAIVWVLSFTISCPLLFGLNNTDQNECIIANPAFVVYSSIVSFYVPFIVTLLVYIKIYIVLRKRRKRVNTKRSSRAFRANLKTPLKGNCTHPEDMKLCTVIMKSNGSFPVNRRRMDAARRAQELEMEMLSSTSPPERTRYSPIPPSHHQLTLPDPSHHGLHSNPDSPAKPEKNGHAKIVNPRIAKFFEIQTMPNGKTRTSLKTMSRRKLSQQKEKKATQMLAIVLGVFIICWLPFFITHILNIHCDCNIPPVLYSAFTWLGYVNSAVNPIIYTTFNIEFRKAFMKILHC
Experiment: D2 receptor binding assay (3H-Spiperone, rat brain striatum membrane)
Conditions: read-out: D2 inhibition %
OBSERVABLE: inhibition at 10 µM

> print(dat)
                                   molecule                       experimental.system  recorded.measurement
1  Cc1cc(=O)oc2cc(OCCCCN3CCC(c4noc5cc(F)ccc45)CC3)ccc12  dopamine D2 receptor (Rattus norvegicus)                  101%
2  O=c1cc(-c2ccccc2)c2ccc(OCCCN3CCC(c4noc5cc(F)ccc45)CC3)cc2o1  dopamine D2 receptor (Rattus norvegicus)                 18.5%
3  O=c1cc(C(F)(F)F)c2ccc(OCCCCN3CCN(c4nsc5ccccc45)CC3)cc2o1  dopamine D2 receptor (Rattus norvegicus)                  113%
4  Cc1cc(=O)oc2c(Cl)c(OCCCCN3CCC(c4noc5cc(F)ccc45)CC3)ccc12  dopamine D2 receptor (Rattus norvegicus)                 27.8%
5  Cc1cc(=O)oc2cc(OC/C=C/CN3CCC(c4noc5cc(F)ccc45)CC3)ccc12  dopamine D2 receptor (Rattus norvegicus)                  111%

// inhibition at 10 µM (dopamine D2 receptor (Rattus norvegicus)) for Cc1cc(=O)oc2c(Cl)c(OCCCCN3CCN(c4nsc5ccccc45)CC3)ccc12 = 9.7%

# value of inhibition at 10 µM, dopamine D2 receptor (Rattus norvegicus), item O=C1CC(c2ccccc2)c2ccc(OCCCCN3CCC(c4noc5cc(F)ccc45)CC3)cc2O1 (centres unmarked) = 120%

# O=c1ccc2ccc(OCCCN3CCC(c4noc5cc(F)ccc45)CC3)cc2o1 with dopamine D2 receptor (Rattus norvegicus): inhibition at 10 µM is 106%
